# tested.on: Serine/threonine-protein kinase 16 (Homo sapiens)
# assay.comment: ligand-induced STK16 melting temperature shift – biophysical, recombinant human kinase, DSF (AID 395)
# setup.conditions: recombinant STK16, DSF thermal shift, SYPRO orange; at 10 µM; protein 2 µM; buffer 10 mM HEPES; pH 7.5; NaCl 150 mM; hits give high values
quantity: Tm shift

INSERT INTO results (molecule, tested_on, result) VALUES
  ('O=C1NC(=O)C(c2c[nH]c3ccccc23)=C1c1c[nH]c2ccccc12', 'Serine/threonine-protein kinase 16 (Homo sapiens)', '3.4 °C'),
  ('N=C(N)SCCCn1cc(C2=C(c3c[nH]c4ccccc34)C(=O)NC2=O)c2ccccc21', 'Serine/threonine-protein kinase 16 (Homo sapiens)', '4.3 °C'),
  ('CCN(CC)CCNC(=O)c1c(C)[nH]c(/C=C2\C(=O)Nc3ccc(Cl)cc32)c1C', 'Serine/threonine-protein kinase 16 (Homo sapiens)', '6 °C'),
  ('O=C1C(=O)C(c2cccc(O)c2)Oc2ccccc21 (stereo unspecified)', 'Serine/threonine-protein kinase 16 (Homo sapiens)', '4.41 °C'),
  ('O=c1cc(-c2ccccc2)oc2cc(O)cc(O)c12', 'Serine/threonine-protein kinase 16 (Homo sapiens)', '5.74 °C');

Summary line: Cc1nc(N)sc1-c1ccnc(Nc2cccc(-n3oo3)c2)n1 , Serine/threonine-protein kinase 16 (Homo sapiens), reported Tm shift = 10.7 °C

Entry O=C(c1ccc(Nc2nccc(-c3cc4ccccc4s3)n2)cc1)N1CCC(N2CCCC2)CC1 , Serine/threonine-protein kinase 16 (Homo sapiens) data, Tm shift value: 8.9 °C

Tested on Serine/threonine-protein kinase 16 (Homo sapiens): O=c1cc(-c2ccc(O)c(O)c2)oc2cc(O)cc(O)c12 . Observed Tm shift: 4.82 °C

The molecule NS(=O)(=O)c1ccc(Nc2nc(OCC3CCCCC3)c3[nH]cnc3n2)cc1 , tested on Serine/threonine-protein kinase 16 (Homo sapiens), showed Tm shift of 4.1 °C

Log: Serine/threonine-protein kinase 16 (Homo sapiens), molecule O=Nc1c(-c2c(O)[nH]c3ccc(S(O)(O)O)cc23)[nH]c2ccccc12 , Tm shift = 5.7 °C

The observed Tm shift for O=c1[nH]c(O)c2c1c1c3ccccc3nc1n1cncc21 when tested with Serine/threonine-protein kinase 16 (Homo sapiens) stands at 5.4 °C

----------
Measured Tm shift by item
# tested.on: Serine/threonine-protein kinase 16 (Homo sapiens)
# assay.comment: ligand-induced STK16 melting temperature shift – biophysical, recombinant human kinase, DSF (AID 395)
# setup.conditions: recombinant STK16, DSF thermal shift, SYPRO orange; at 10 µM; protein 2 µM; buffer 10 mM HEPES; hits give high values

Please review the following examples before continuing.
INSERT INTO measurements (molecule, tested_on, result) VALUES
  ('COC(=O)c1cnc2oc3ccc(O)cc3c2c1-c1ccccc1', 'Serine/threonine-protein kinase 16 (Homo sapiens)', '5.35 °C'),
  ('COc1ccc2c(c1)/C(=C/c1cnc[nH]1)C(=O)N2', 'Serine/threonine-protein kinase 16 (Homo sapiens)', '4.35 °C'),
  ('CC(C)C(CO)Nc1nc(Nc2cccc(Cl)c2)c2ncn(C(C)C)c2n1 (stereo unspecified)', 'Serine/threonine-protein kinase 16 (Homo sapiens)', '3.15 °C'),
  ('Clc1cccc(-c2cnc3ccc(NC4CCOCC4)nn23)c1', 'Serine/threonine-protein kinase 16 (Homo sapiens)', '4 °C');

Value (Tm shift, Serine/threonine-protein kinase 16 (Homo sapiens)) for record Clc1cccc(Nc2ccn3ncc(-c4cccnc4)c3n2)c1 = 5.48 °C

So the reported Tm shift for CC1N=C2SC=CN2C(=O)C1CCN1CCC(=C(c2ccccc2)c2ccc(F)cc2)CC1 (stereo unspecified) , on Serine/threonine-protein kinase 16 (Homo sapiens), turned out to be 3.67 °C
